Here's what we have: pKi numbers for Sodium-dependent dopamine transporter (Homo sapiens, UniProt Q01959).
A value of pKi is the negative decimal logarithm of a concentration given in moles per litre.

Answered examples (3):
molecule	pKi
CCCC(C(=O)c1ccc(N=[N+]=[N-])c(I)c1)N1CCCC1 (centres undefined)	7.11
CCCC(C(=O)c1ccc(N)cc1)N1CCCC1 (centres undefined)	8.30
CCCC(C(=O)c1ccc(C)cc1)N1CCCC1 (centres undefined) [PYROVALERONE]	8.10

Next molecule, pKi to be filled in.
Task: Identify the measured pKi of CCCC(C(=O)c1ccc(N)c(I)c1)N1CCCC1 (centres undefined) for Sodium-dependent dopamine transporter (Homo sapiens, UniProt Q01959).
Result: 7.55

// data source = ChEMBL document CHEMBL1158432
